Cited source: patent US7977387B2

System: TNF-α
Method Summary: Inhibition of TNF-α secretion in LPS stimulated peripheral blood mononuclear cells
Assay type: cell-based
Measurement Conditions: PBMC; LPS stimulated human peripheral blood mononuclear cells, 18 hours, ELISA; read-out: The median inhibition concentration (IC50, nM) of TNF-α
Quick rule for you: IC50 under 0.8 nM gets satisfied, anything else gets not satisfied.

Illustrative cases are given below, each with its answer.
{"Smiles Structure": "COc1cccc(NC(=O)Nc2ccc(C)c(C(=O)c3ccc(Nc4ccc(F)cc4F)cc3Cl)c2)c1", "Group Label": "satisfied"}
{"Smiles Structure": "COc1ccc(C(=O)NCCO)cc1C(=O)c1ccc(Nc2ccc(F)cc2F)cc1Cl", "Group Label": "not satisfied"}
{"Smiles Structure": "COc1ccc(C(=O)NC(C)(CO)CO)cc1C(=O)c1ccc(Nc2c(F)cccc2F)cc1Cl", "Group Label": "not satisfied"}
{"Smiles Structure": "Cc1ccc(NC(=O)NC2CCCCC2)cc1C(=O)c1ccc(Nc2ccc(F)cc2F)cc1Cl", "Group Label": "satisfied"}
{"Smiles Structure": "Cc1ccc(C(=O)NCCO)cc1C(=O)c1ccc(Nc2ccc(Br)cc2N)cc1Cl", "Group Label": "not satisfied"}
{"Smiles Structure": "Cc1cc(F)ccc1Nc1ccc(C(=O)c2cc(C(=O)NCCCN3CCOCC3)ccc2C)c(Cl)c1", "Group Label": "not satisfied"}
{"Smiles Structure": "CCCCNC(=O)Nc1ccc(C)c(C(=O)c2ccc(Nc3ccc(F)cc3F)cc2Cl)c1", "Group Label": "satisfied"}
{"Smiles Structure": "CCNC(=O)c1ccc(C)c(C(=O)c2ccc(Nc3ccc(Cl)cc3F)cc2Cl)c1", "Group Label": "satisfied"}
{"Smiles Structure": "CCOC(=O)CNC(=O)CNC(=O)c1ccc(C)c(C(=O)c2ccc(Nc3ccc(F)cc3F)cc2Cl)c1", "Group Label": "satisfied"}

Turning now to a further record.
Query block: Hi there! Is IC50 for COCCOCC(=O)Nc1ccc(C)c(C(=O)c2ccc(Nc3ccc(F)cc3F)cc2Cl)c1 below 0.8 nM, do you know?
Result block: not satisfied

###

System: IL-1β
Method Summary: Inhibition of IL-1β secretion in LPS stimulated peripheral blood mononuclear cells
Format: cell-based
Measurement Conditions: PBMC; LPS stimulated human peripheral blood mononuclear cells, 18 hours, ELISA; read-out: The median inhibition concentration (IC50, nM) of IL-1β
So basically every entry gets a class from its IC50, ranges being b0 = under 2 nM, b1 = from 2 nM up to 3 nM, b2 = 3 nM and over

{"Compound": "Cc1ccc(C(=O)NCC(C)C)cc1C(=O)c1ccc(Nc2ccc(Cl)cc2F)cc1Cl", "Group Label": "b1"}
{"Compound": "Cc1cc(Br)ccc1Nc1ccc(C(=O)c2cc(C(=O)NCCO)ccc2C)c(Cl)c1", "Group Label": "b1"}
{"Compound": "Cc1ccc(C(=O)NCC(=O)NCCC(N)=O)cc1C(=O)c1ccc(Nc2ccc(F)cc2F)cc1Cl", "Group Label": "b1"}
{"Compound": "Cc1ccc(C(=O)NCC(O)CO)cc1C(=O)c1ccc(Nc2ccc(F)cc2F)cc1Cl (centres unmarked)", "Group Label": "b1"}
{"Compound": "COc1ccc(C(=O)NCCO)cc1C(=O)c1ccc(Nc2ccc(F)cc2)cc1Cl", "Group Label": "b0"}
{"Compound": "COCCCNC(=O)c1ccc(C)c(C(=O)c2ccc(Nc3ccc(Cl)cc3F)cc2Cl)c1", "Group Label": "b2"}

Query block: Where would COc1ccc(CO)cc1C(=O)c1ccc(Nc2ccc(F)cc2F)cc1Cl land among the classes by reported IC50?
Result block: b1

Query block: Where would CCCNC(=O)Nc1ccc(C)c(C(=O)c2ccc(Nc3ccc(F)cc3F)cc2Cl)c1 land among the classes by reported IC50?
Result block: b0

Query block: Where would Cc1ccc(C(=O)NCC(C)O)cc1C(=O)c1ccc(Nc2ccc(F)cc2F)cc1Cl (centres unmarked) land among the classes by reported IC50?
Result block: b0

###

Each record here notes measured IC50.
System: IL-1β
Method Summary: Inhibition of IL-1β secretion in LPS stimulated peripheral blood mononuclear cells
Assay type: cell-based
Measurement Conditions: PBMC; LPS stimulated human peripheral blood mononuclear cells, 18 hours, ELISA; read-out: The median inhibition concentration (IC50, nM) of IL-1β

Solved cases below.
{"Compound": "CCOC(=O)CNC(=O)CNC(=O)c1ccc(OC)c(C(=O)c2ccc(Nc3c(F)cccc3F)cc2Cl)c1 [Compound 183]", "Value Observed": "2 nM"}
{"Compound": "Cc1cc(F)ccc1Nc1ccc(C(=O)c2cc(C(=O)NCC3CCCO3)ccc2C)c(Cl)c1 (centres unmarked) [Compound 104]", "Value Observed": "2 nM"}
{"Compound": "Cc1ccc(C(=O)NCCO)cc1C(=O)c1ccc(Nc2ccc(F)cc2F)cc1Cl [Compound 115]", "Value Observed": "1.3 nM"}
{"Compound": "Cc1ccc(NC(=O)CCN2CCOCC2)cc1C(=O)c1ccc(Nc2ccc(F)cc2F)cc1Cl [Compound 244]", "Value Observed": "1.3 nM"}
{"Compound": "Cc1ccc(NC(=O)NCCc2ccccc2)cc1C(=O)c1ccc(Nc2ccc(F)cc2F)cc1Cl [Compound 272]", "Value Observed": "3.2 nM"}
{"Compound": "COc1ccc(C(=O)NCC(N)=O)cc1C(=O)c1ccc(Nc2ccc(F)cc2F)cc1Cl [Compound 144]", "Value Observed": "1 nM"}
{"Compound": "COc1ccc(C(=O)NCCO)cc1C(=O)c1ccc(Nc2ccccc2)cc1Cl [Compound 195]", "Value Observed": "2.2 nM"}
{"Compound": "COCCNC(=O)c1ccc(C)c(C(=O)c2ccc(Nc3ccc(F)cc3C)cc2Cl)c1 [Compound 106]", "Value Observed": "2 nM"}

Param item: Cc1cc(F)ccc1Nc1ccc(C(=O)c2cc(C(=O)NCc3ccncc3)ccc2C)c(Cl)c1 [Compound 109] ; param system: IL-1β; output IC50: 4 nM

Param item: COc1ccc(C(=O)NCCF)cc1C(=O)c1ccc(Nc2c(F)cccc2F)cc1Cl [Compound 174] ; param system: IL-1β; output IC50: 3.2 nM

Param item: COc1ccc(C(=O)NCC(F)F)cc1C(=O)c1ccc(Nc2ccc(F)cc2)cc1Cl [Compound 196] ; param system: IL-1β; output IC50: 3.2 nM
